These data points were gathered from PubChem BioAssay (NCI).

Overview of reported GI50 across a group of molecules:
# Test system: HCT-116 colon
# Test Protocol: NCI tumour cell line growth inhibition, 48 h

Sample records with GI50:
{"Molecule": "O=C(CC12CC3CC(CC(C3)C1)C2)NCCOCCOCCOCCNC(=O)c1cc2c(o1)C(=O)c1ccccc1C2=O", "Target": "HCT-116 colon", "GI50": "1870 nM"}
{"Molecule": "C=CCN1C=CC(=O)[C@H](O[Si](C)(C)C(C)(C)C)[C@@H]1/C=C/c1ccccc1", "Target": "HCT-116 colon", "GI50": "6960 nM"}
{"Molecule": "CCCCCCCCCCC(O)C1CCC(C(O)CCC(O)C2CCC(CCCCCCC[C@H](O)CC3=C[C@@H](C)OC3=O)O2)O1 (some centres undefined)", "Target": "HCT-116 colon", "GI50": "3480 nM"}

Field: next molecule
**Query** Query GI50 for O=C([O][Hg][CH2]C1COCC([CH2][Hg][O]C(=O)c2ccccc2)O1)c1ccccc1 (centres undefined)
**Result** 1560 nM
